Assay: Cytotoxicity against human THP1 cells by MTT assay
Type: cell-based, THP-1
Settings: human, THP-1 cells; read-out: LC50 (the source's name)
quantity_measured: CC50

Past entries and their recorded results:
Fc1ccc(-c2nc(C(Cl)(Cl)Cl)nc3ccccc23)cc1: 500 µM
COc1ccc(-c2nc(C(Cl)(Cl)Cl)nc3ccccc23)cc1: > 250 µM

[in] Tell me measured CC50 for Cc1ccc(-c2nc(C(Cl)(Cl)Cl)nc3ccccc23)s1 please.
[out] 125 µM

###

Measured CC50 values are reported for all entries that follow.
Test: Cytotoxicity against human THP1 cells by MTT assay
Assay type: cell-based, THP-1
Details: human, THP-1 cells; read-out: LC50 (the source's name)

Consider the following illustrative entries.
ClC(Cl)(Cl)c1nc(-c2ccc3ccccc3c2)c2ccccc2n1: > 500 µM
C/N=C(\NC)c1nc(-c2ccccc2)c2ccccc2n1.Cl: > 500 µM
Cc1nc(-c2ccccc2)c2ccccc2n1: > 500 µM

[in] Annotate the molecule ClC(Cl)(Cl)c1nc(-c2ccco2)c2ccccc2n1 with its measured CC50.
[out] > 500 µM

[in] Output CC50 of Clc1nc(C(Cl)(Cl)Cl)nc2ccccc12
[out] > 500 µM

[in] Answer with the recorded CC50 of FC(F)(F)c1cccc(-c2nc(C(Cl)(Cl)Cl)nc3ccccc23)c1 only.
[out] > 500 µM

[in] For the molecule Clc1ccc(-c2nc(C(Cl)(Cl)Cl)nc3ccccc23)cc1 , give its reported CC50.
[out] > 500 µM

[in] Using the record for ClC(Cl)(Cl)c1nc(-c2ccccc2)c2ccccc2n1 , state its measured CC50.
[out] > 500 µM

[in] Respond only with CC50 recorded for COc1cccc2c1C(=O)c1c(O)c3c(c(O)c1C2=O)C[C@@](O)(C(=O)CO)C[C@@H]3O[C@H]1C[C@H](N)[C@H](O)[C@H](C)O1 [DOXORUBICIN]
[out] 2.5 µM

[in] Item COc1cc(-c2nc(C(Cl)(Cl)Cl)nc3ccccc23)cc(OC)c1OC : provide CC50
[out] > 250 µM

###

System: Plasmodium falciparum
Assay: Antiplasmodial activity against chloroquinone-resistant Plasmodium falciparum W2
Format: functional, organism-based
quantity_measured: log10(IC50) (log10 of the value in µM)
Use the decimal logarithm of IC50 (µM).

Look over these answered cases.
Clc1nc(C(Cl)(Cl)Cl)nc2ccccc12: 1.74
ClC(Cl)(Cl)c1nc(-c2ccc3ccccc3c2)c2ccccc2n1: 0.91
Fc1ccc(-c2nc(C(Cl)(Cl)Cl)nc3ccccc23)cc1: 0.40
Cc1nc(-c2ccccc2)c2ccccc2n1: 1.80
C[C@H]1c2cccc(O)c2C(=O)C2=C(O)[C@]3(O)C(=O)C(C(N)=O)=C(O)[C@@H](N(C)C)[C@@H]3[C@@H](O)[C@@H]21: 0.95

[in] Dear colleague, please send me the reported log10(IC50) for ClC(Cl)(Cl)c1nc(-c2ccccc2)c2ccccc2n1 when you can.
[out] 0.90

[in] For the compound COc1ccc(-c2nc(C(Cl)(Cl)Cl)nc3ccccc23)cc1 , report log10(IC50).
[out] 1.04

###

System: THP-1
Assay: Cytotoxicity against human THP1 cells by MTT assay
Format: cell-based
Conditions: Homo sapiens, THP-1
Documented IC50 across a set of compounds

FC(F)(F)c1cccc(-c2nc(C(Cl)(Cl)Cl)nc3ccccc23)c1: 78.6 µM
Cc1ccc(-c2nc(C(Cl)(Cl)Cl)nc3ccccc23)s1: 50 µM
ClC(Cl)(Cl)c1nc(-c2ccc3ccccc3c2)c2ccccc2n1: > 500 µM
COc1ccc(-c2nc(C(Cl)(Cl)Cl)nc3ccccc23)cc1: 250 µM
Fc1ccc(-c2nc(C(Cl)(Cl)Cl)nc3ccccc23)cc1: 125 µM

[in] Fill in reported IC50 for this entry: ClC(Cl)(Cl)c1nc(-c2ccccc2)c2ccccc2n1
[out] 125 µM

[in] Return reported IC50. Input compound: Clc1nc(C(Cl)(Cl)Cl)nc2ccccc12
[out] > 500 µM

[in] Answer with the recorded IC50 of Clc1ccc(-c2nc(C(Cl)(Cl)Cl)nc3ccccc23)cc1 only.
[out] 73.2 µM

[in] Give the value of IC50 reported for the following: C/N=C(\NC)c1nc(-c2ccccc2)c2ccccc2n1.Cl
[out] > 500 µM

[in] Input COc1cc(-c2nc(C(Cl)(Cl)Cl)nc3ccccc23)cc(OC)c1OC , output reported IC50.
[out] > 250 µM

[in] Determine from records and report IC50 for Cc1nc(-c2ccccc2)c2ccccc2n1
[out] 125 µM

[in] Quote IC50 reported for ClC(Cl)(Cl)c1nc(-c2ccco2)c2ccccc2n1 please.
[out] 61.6 µM

[in] Give reported IC50 value for COc1cccc2c1C(=O)c1c(O)c3c(c(O)c1C2=O)C[C@@](O)(C(=O)CO)C[C@@H]3O[C@H]1C[C@H](N)[C@H](O)[C@H](C)O1
[out] 0.05 µM

Data origin: ChEMBL document CHEMBL1143259
